Biological target: HIV-1 92RW020 Env on pseudovirus (HIV-1 strain 92RW020)
Assay: cell-based or functional assay
Parameter Measured: IC50 (ug/ml), pseudovirus neutralisation, TZM-bl assay (µg/mL)

Binder: 1456_A12 (PG16) antibody, sister clone of 1443_C16 (antibody, V domains shown) VH: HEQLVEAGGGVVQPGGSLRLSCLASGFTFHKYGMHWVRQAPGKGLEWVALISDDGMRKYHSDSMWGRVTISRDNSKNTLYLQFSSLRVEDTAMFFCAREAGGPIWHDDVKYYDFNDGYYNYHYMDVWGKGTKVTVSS VL: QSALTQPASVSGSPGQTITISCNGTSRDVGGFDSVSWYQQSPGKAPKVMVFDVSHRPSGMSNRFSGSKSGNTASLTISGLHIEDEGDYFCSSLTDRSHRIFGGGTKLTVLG
Measured Number: 0.05
